Catalogue of logP values
assay: logP determination by HPLC on a reversed-phase column (C 18), EEC Directive 79/831 Annex V.A8; format: physicochemical; conditions: value marked [c]
TEST_READOUT: logP

molecule=CCOc1cc(C)nc(C(C)=NOCC(C)(C)CON=C(C)c2cc(OCC)cc(C)n2)c1 result=6.90^[c]
molecule="COC(CON=C(C)c1ccc(C)c(C)n1)CON=C(C)c1ccc(C)c(C)n1 (centres unmarked)" result=5.06^[c]
molecule="CCC(CC)(CON=C(C)c1nc(C)ccc1C)CON=C(C)c1nc(C)ccc1C [compound 882]" result=5.41^[c]
molecule="CC(=NOCC1(CON=C(C)c2nc(C)ccc2C)CCCC1)c1nc(C)ccc1C (single isomer, unassigned) [Compound 763]" result=6.32^[c]
molecule="CC(=NOCC(C)CON=C(C)c1cc(Cl)cc(C)n1)c1cccc(C)n1 (centres unmarked)" result=7.36^[c]
molecule="CCC(C)(CON=C(C)c1cc(C)cc(C)n1)CON=C(C)c1cc(C)cc(C)n1 (centres unmarked)" result=7.18^[c]
molecule="CC(=NOCC(C)CON=C(C)c1cc(C2CC2)cc(C)n1)c1cc(Cl)cc(C)n1 (centres unmarked)" result=7.36^[c]
molecule=CCC(CC)(CON=C(C)c1ccc(C)c(C)n1)CON=C(C)c1ccc(C)c(C)n1 result=7.36^[c]
molecule="CC(=NOCC1(CON=C(C)c2nc(C)ccc2C)COC(=O)N1)c1nc(C)ccc1C (centres unmarked)" result=2.81^[c]
molecule="COCc1cc(C)nc(C(C)=NOCC(C)CON=C(C)c2cc(COC)cc(C)n2)c1 (centres unmarked)" result=5.57^[c]
molecule="CCOC(=O)C(C)(CON=C(C)c1nc(C)ccc1C)CON=C(C)c1nc(C)ccc1C (centres unmarked) [compound 884]" result=3.84^[c]
molecule="C=CCOC(C)(CON=C(C)c1cccc(C)n1)C(C)ON=C(C)c1cccc(C)n1 (centres unmarked)" result=6.96^[c]
molecule=CC(=NOC[Si](C)(C)CON=C(C)c1ccc(C)c(C)n1)c1ccc(C)c(C)n1 result=7.05^[c]
molecule=CCC(CC)(CON=C(C)c1cccc(C)n1)CON=C(C)c1cccc(C)n1 result=6.97^[c]
molecule=CCC(CC)(CON=C(C)c1cc(C)cc(C)n1)CON=C(C)c1cc(C)cc(C)n1 result=7.36^[c]
molecule="CCCC(CON=C(C)c1ccc(C)c(C)n1)CON=C(C)c1ccc(C)c(C)n1 (centres unmarked)" result=7.23^[c]
molecule="CC(=NOCC(CON=C(C)c1ccc(C)c(C)n1)c1ccccc1)c1ccc(C)c(C)n1 (centres unmarked)" result=6.45^[c]
molecule="CC(=NOCC(C)CON=C(C)c1cc(C2CC2)cc(C)n1)c1cccc(C)n1 (centres unmarked)" result=6.40^[c]
molecule="C=C(CON=C(C)c1nc(C)ccc1C)CON=C(C)c1nc(C)ccc1C (single isomer, unassigned)" result=2.94^[c]
molecule="CCOC(=O)C(C)(CON=C(C)c1ccc(C)c(C)n1)CON=C(C)c1ccc(C)c(C)n1 (centres unmarked)" result=5.82^[c]
molecule="CC(=NOC(C)CC(C)ON=C(C)c1ccc(C)c(C)n1)c1ccc(C)c(C)n1 (centres unmarked)" result=6.79^[c]
molecule=CC(=NOCC(C)(C)CON=C(C)c1ccc(C)c(C)n1)c1cccc(C)n1 result=6.34^[c]
molecule="COc1c(Cl)cc(C(C)=NOCC(C)CON=C(C)c2cc(Cl)c(OC)c(C)n2)nc1C (centres unmarked)" result=7.36^[c]
molecule="CC(=NOCC(C)(C)CON=C(c1ccccc1)c1cccc(C)n1)c1cccc(C)n1 (mixture of isomers) [Compound 880]" result=5.37^[c]
molecule="CC(=NOCC(C)CON=C(C)c1cc(N2CCCC2)cc(C)n1)c1cc(N2CCCC2)cc(C)n1 (centres unmarked)" result=5.93^[c]
molecule=CC[Si](C)(CON=C(C)c1cccc(C)n1)CON=C(C)c1cccc(C)n1 result=6.52^[c]
